SYSTEM_UNDER_TEST: IDH1 R132H (Homo sapiens, UniProt O75874, R132H)
Sequence (O75874 whole entry R132H): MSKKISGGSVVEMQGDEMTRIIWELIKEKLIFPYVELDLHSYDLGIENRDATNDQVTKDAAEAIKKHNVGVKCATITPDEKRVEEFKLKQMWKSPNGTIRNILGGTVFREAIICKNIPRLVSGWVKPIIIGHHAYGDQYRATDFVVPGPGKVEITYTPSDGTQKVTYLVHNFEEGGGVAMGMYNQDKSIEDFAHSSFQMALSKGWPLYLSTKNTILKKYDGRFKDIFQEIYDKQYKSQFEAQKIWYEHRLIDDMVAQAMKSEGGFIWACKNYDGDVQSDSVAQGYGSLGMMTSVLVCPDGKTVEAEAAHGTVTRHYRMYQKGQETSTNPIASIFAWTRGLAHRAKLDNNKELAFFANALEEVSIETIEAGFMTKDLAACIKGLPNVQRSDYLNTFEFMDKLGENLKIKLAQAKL
TEST_METHOD_NOTES: Assay for IDH1 R132H inhibitors (NADPH/aKG, resazurin detection)
Format: biochemical
APPLIED_CONDITIONS: enzyme assay of Example 12; read-out: IDH1R132H IC50
Would you kindly list IC50 for each of these compounds?

>>> df
                                   compound  measured_endpoint  reported_measurement
0  C#CC(=O)N1CCC=C(c2cc(C#N)c(N3CCN(C(=O)C4CC4)[C@H](C)C3)nc2C2CC2)C1               IC50              < 0.5 µM
1  Cc1cc2c(-c3cc(C#N)c(N4CCN(C(=O)C5CC5)[C@H](C5CC5)C4)nc3C3CC3)cccc2cn1               IC50              < 0.5 µM
2  N#Cc1cc(-c2cnn(CCO)c2)c(C2CC2)nc1N1CCN(C(=O)C2CC2)[C@H](C2CC2)C1               IC50           0.5 to 1 µM
3  C=Cc1cc(Nc2c(C3CC3)nc(N3CCN(C(=O)CCO)[C@H](C4CC4)C3)c(C#N)c2C)ccn1               IC50              < 0.5 µM
4  CNC(=O)c1cccc(-c2c(C3CC3)nc(N3CCN(C(=O)CCOC)[C@H](C)C3)c(C#N)c2C)c1               IC50           0.5 to 1 µM

Need IC50 for each of these compounds.
1. N#Cc1cc(-c2cnnc(O)c2)c(C2CC2)nc1N1CCN(C(=O)C2CC2)[C@H](C2CC2)C1
2. COCCC(=O)N1CCN(c2nc(C3CC3)c(OC(C)c3cccc(Cl)c3)cc2C#N)C[C@H]1C (stereo partly drawn)

## Result
1: < 0.5 µM; 2: 0.5 to 1 µM

Here are 3 compounds. What values of IC50 were reported for them?
1. C=CC(=O)N(c1ccncc1)c1cc(C#N)c(N2CCN(C(=O)CCOC)[C@H](C)C2)nc1C1CC1
2. N#Cc1cc(-c2cccc3c(O)nccc23)c(C2CC2)nc1N1CCN(C(=O)C2CC2)[C@H](C2CC2)C1
3. CCOC(=O)N1CCN(c2cc(C#N)c(N3CCN(C(=O)CCOC)[C@H](C)C3)nc2C2CC2)CC1

## Result
1: < 0.5 µM; 2: < 0.5 µM; 3: < 0.5 µM

Please state, for each entry, its recorded IC50.
1. N#CCn1cc(-c2cc(C#N)c(N3CCN(C(=O)C4CC4)[C@H](C4CC4)C3)nc2C2CC2)cn1
2. CCO[C@H]1C[C@@H]1C(=O)N1CCN(c2nc(C3CC3)c(-c3cccc4cnccc34)cc2C#N)C[C@H]1C1CC1 [Compound 514]

## Result
0.5 to 1 µM
< 0.5 µM

Look at each compound and report its IC50.
1. Cc1c(C#N)c(N2CCN(C(=O)C3CC3)[C@H](C3CC3)C2)nc(C2CC2)c1-c1cn[nH]c1
2. COCCC(=O)N1CCN(c2nc(C3CC3)c(OCc3cccnc3)cc2C#N)C[C@H]1C
3. N#Cc1cc(-c2cnnc(OS(=O)(=O)C(F)(F)F)c2)c(C2CC2)nc1N1CCN(C(=O)C2CC2)[C@H](C2CC2)C1
4. C=Cc1cc(-c2c(C3CC3)nc(N3CCN(C(=O)C[C@@H]4CCO4)[C@H](C4CC4)C3)c(C#N)c2C)ccn1
5. Cc1cc2c(-c3cc(C#N)c(N4CCN(C(=O)CCO)[C@H](C)C4)nc3C3CC3)cccc2cn1

## Result
1. 0.5 to 1 µM
2. < 0.5 µM
3. < 0.5 µM
4. < 0.5 µM
5. < 0.5 µM

Below is a list of compounds. For each, state its recorded IC50.
1. C=Cc1ccnc(Nc2cc(C#N)c(N3CCN(C(=O)CCO)[C@H](C)C3)nc2C2CC2)c1
2. C=Cc1cc(-c2cc(C#N)c(N3CCN(C(=O)CCOC)[C@H](C4CC4)C3)nc2C2CC2)ccn1
3. C=Cc1cnnc(-c2c(C3CC3)nc(N3CCN(C(=O)CCO)[C@H](C4CC4)C3)c(C#N)c2C)c1
4. C=Cc1cc(-c2c(C3CC3)nc(N3CCN(C(=O)C[C@H]4CCO4)[C@H](C4CC4)C3)c(C#N)c2C)ccn1

## Result
["< 0.5 µM", "< 0.5 µM", "< 0.5 µM", "< 0.5 µM"]

Value sought for every listed compound: IC50.
1. COCCC(=O)N1CCN(c2nc(C3CC3)c(OC(C)c3ccncc3)cc2C#N)C[C@H]1C (stereo partly drawn)
2. C[C@@H]1CN(c2nc(C3CC3)c(-c3cccc4cnccc34)cc2C#N)CCN1C(=O)C1CC1
3. COCCC(=O)N1CCN(c2nc(C3CC3)c(-c3cnc(OC)c4ccccc34)cc2C#N)C[C@H]1C

## Result
1: < 0.5 µM; 2: < 0.5 µM; 3: < 0.5 µM

* * *

SYSTEM_UNDER_TEST: IDH1 R132H (Homo sapiens, UniProt O75874, R132H)
TEST_METHOD_NOTES: Assay for IDH1 R132H inhibitors (NADPH/aKG, resazurin detection)
Assay type: biochemical
APPLIED_CONDITIONS: enzyme assay of Example 12; read-out: IDH1R132H IC50
pIC50: −log10 of the molar value.
MEASURED_ENDPOINT: pIC50

In [3]: df
Out[3]:
                                   compound                         system_under_test  reported_measurement
0  C=C(F)C(=O)Nc1cccc(-c2cc(C#N)c(N3CCN(C(=O)CCOC)[C@H](C)C3)nc2C2CC2)c1 [Compound 431]  IDH1 R132H (Homo sapiens, UniProt O75874, R132H)          6.00 to 6.30
1  C=Cc1cc(-c2c(C3CC3)nc(N3CCN(C(=O)C[C@H]4CCO4)[C@H](C4CC4)C3)c(C#N)c2CC)ccn1 [Compound 823]  IDH1 R132H (Homo sapiens, UniProt O75874, R132H)                > 6.30

Provide reported pIC50 for each item, in the same order as listed.
1. COCCC(=O)N1CCN(c2nc(C3CC3)c(-c3cccc4cnccc34)c(C)c2C#N)C[C@H]1C [Compound 410]
2. C=Cc1ccc2c(-c3cc(C#N)c(N4CCN(C(=O)C5CC5)[C@H](C5CC5)C4)nc3C3CC3)cccc2n1 [Compound 475]
3. COCCC(=O)N1CCN(c2nc(C3CC3)c(-c3cccnc3OC)cc2C#N)C[C@H]1C [Compound 328]
4. CCC(=O)Nc1cccc(-c2cc(C#N)c(N3CCN(C(=O)C4CC4)[C@H](C4CC4)C3)nc2C2CC2)c1 [Compound 450]
5. C=Cc1cc(-c2cc(C#N)c(N3CCN(C(=O)CCC(OC)OC)[C@H](C)C3)nc2C2CC2)ccn1 [Compound 606]
6. COCCC(=O)N1CCN(c2nc(C3CC3)c(-c3cccc4c(O)ncnc34)cc2C#N)C[C@H]1C [Compound 430]
7. N#Cc1cc(-c2ccc(C(F)(F)F)nc2)c(C2CC2)nc1N1CCN(C(=O)C2CC2)[C@H](C2CC2)C1 [Compound 567]
8. CCO[C@@H]1C[C@@H]1C(=O)N1CCN(c2nc(C3CC3)c(-c3cccc4cnccc34)cc2C#N)C[C@H]1C [Compound 517]

## Result
1: > 6.30; 2: > 6.30; 3: > 6.30; 4: 6.00 to 6.30; 5: > 6.30; 6: 5.00 to 6.00; 7: 6.00 to 6.30; 8: > 6.30

Consider the following items and state reported pIC50 for each.
1. COCCC(=O)N1CCN(c2nc(C3CC3)c(-c3cccc4nc(O)ccc34)cc2C#N)C[C@H]1C [Compound 442]
2. C=Cc1cc(Nc2cc(C#N)c(N3CCN(C(=O)CCO)[C@H](C(C)C)C3)nc2C2CC2)ccn1 [Compound 754]
3. C=Cc1cc(Nc2cc(C#N)c(N3CCN(C(=O)CCO)[C@H](C)C3)nc2C2CC2)ncn1 [Compound 617]
4. COCCC(=O)N1CCN(c2nc(C3CC3)c(-c3cccc4cccnc34)cc2C#N)C[C@H]1C [Compound 342]

## Result
1. > 6.30
2. > 6.30
3. > 6.30
4. > 6.30

Record pIC50 per entry; entries follow.
1. Cc1cc2c(-c3cc(C#N)c(N4CCN(C(=O)CC(F)(F)F)[C@H](C5CC5)C4)nc3C3CC3)cccc2cn1 [Compound 471]
2. Cc1c(C#N)c(N2CCN(C(=O)CC(F)(F)F)[C@H](C3CC3)C2)nc(C2CC2)c1-c1ccc(F)cc1 [Compound 300]

## Result
1: > 6.30; 2: 6.00 to 6.30
